Here, each record is paired with measured metabolised at 8 h, 100 µM data.
Biological target: MMP9 (Homo sapiens)
Sequence (P14780 whole entry): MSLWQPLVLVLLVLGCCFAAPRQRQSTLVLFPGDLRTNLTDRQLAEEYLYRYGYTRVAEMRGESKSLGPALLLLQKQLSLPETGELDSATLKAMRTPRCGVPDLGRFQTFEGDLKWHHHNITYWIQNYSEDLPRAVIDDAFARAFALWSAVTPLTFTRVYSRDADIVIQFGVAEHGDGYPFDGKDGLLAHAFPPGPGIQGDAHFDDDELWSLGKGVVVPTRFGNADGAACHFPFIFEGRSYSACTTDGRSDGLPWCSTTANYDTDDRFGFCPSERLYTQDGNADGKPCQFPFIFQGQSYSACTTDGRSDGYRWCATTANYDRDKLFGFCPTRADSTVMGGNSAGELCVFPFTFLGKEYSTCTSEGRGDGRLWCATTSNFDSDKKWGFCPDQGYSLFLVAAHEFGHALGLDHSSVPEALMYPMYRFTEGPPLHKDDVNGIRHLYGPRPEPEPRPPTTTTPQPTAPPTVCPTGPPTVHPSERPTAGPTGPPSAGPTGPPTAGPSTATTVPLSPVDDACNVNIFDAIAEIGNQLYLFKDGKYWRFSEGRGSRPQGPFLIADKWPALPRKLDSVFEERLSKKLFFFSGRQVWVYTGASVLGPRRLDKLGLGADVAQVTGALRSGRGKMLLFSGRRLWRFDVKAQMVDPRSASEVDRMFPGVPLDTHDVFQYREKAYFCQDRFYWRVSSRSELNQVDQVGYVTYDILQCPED
Test: Substrate activity at MMP9 (unknown origin) assessed as enzyme-mediated substrate hydrolysis at 100 umol/L after 8 hrs by UV-HPLC method relative to control
Assay type: ADME
Details: read-out: Drug metabolism
Peptide text beside a SMILES is read from it. * marks the point of attachment. Benzoyl(4-TriPhPorphyrinyl) = O=C(c1ccc(-c2c3nc(c(-c4ccccc4)c4ccc([nH]4)c(-c4ccccc4)c4nc(c(-c5ccccc5)c5ccc2[nH]5)C=C4)C=C3)cc1)*; Pyropheophorbide(a) = C=Cc1c(C)c2cc3nc(c4c5[nH]c(cc6nc(cc1[nH]2)C(C)=C6CC)c(C)c5C(=O)C4)[C@@H](CCC(=O)*)[C@@H]3C; AEEA = NCCOCCOCC(=O)O
Give the number; % is assumed, so skip it.

CC[C@H](C)[C@H](NC(=O)[C@H](CCCNC(=N)N)NC(=O)CNC(=O)COCCOCCNC(=O)c1ccc(-c2c3nc(c(-c4ccccc4)c4ccc([nH]4)c(-c4ccccc4)c4nc(c(-c5ccccc5)c5ccc2[nH]5)C=C4)C=C3)cc1)C(=O)NCC(=O)N[C@@H](Cc1ccccc1)C(=O)N[C@@H](CC(C)C)C(=O)N[C@@H](CCCNC(=N)N)C(=O)N[C@H](C(=O)N[C@@H](C)C(=O)N[C@@H](CCCCN)C(=O)NCC(=O)NCC(=O)O)[C@@H](C)O ({Benzoyl(4-TriPhPorphyrinyl)-AEEA}-GRIGFLRTAKGG-OH) ... 2

Shifting focus to the compound that follows.
QUERY: Look up and report measured metabolised at 8 h, 100 µM for this entry: C=Cc1c(C)c2cc3nc(c4c5[nH]c(cc6nc(cc1[nH]2)C(C)=C6CC)c(C)c5C(=O)C4)[C@@H](CCC(=O)NCC(=O)N[C@@H](CCCNC(=N)N)C(=O)N[C@H](C(=O)NCC(=O)N[C@@H](Cc1ccccc1)C(=O)N[C@@H](CC(C)C)C(=O)N[C@@H](CCCNC(=N)N)C(=O)N[C@H](C(=O)N[C@@H](C)C(=O)N[C@@H](CCCCN)C(=O)NCC(=O)NCC(=O)O)[C@@H](C)O)[C@@H](C)CC)[C@@H]3C ({Pyropheophorbide(a)}-GRIGFLRTAKGG-OH)
RESULT: 5

Where do these numbers come from? They come from ChEMBL document CHEMBL4219063.
